- Tested on: SF-268 CNS
- Measurement Protocol: NCI-60 one-dose screen, 48 h (100 = growth as untreated, 0 = no growth, -100 = all killed)
- Protocol Conditions: 10 µM
The panel holds about 83,000 compounds, 20% with a hit somewhere; the sample as a whole holds those more often.
Answer each item with its documented growth.
Please respond with the number in % and leave the unit unwritten.

Q: GET /values?readout=growth&item= "O=C(Nc1ccc2c(O)cc(S(=O)(=O)O)cc2c1)c1ccc([N+](=O)[O-])cc1"
Ans: 93.9

Q: GET /values?readout=growth&item= "Nc1nc(-c2ccc(Cl)cc2)cc(-c2cc3ccccc3oc2=O)n1"
Ans: 104

Q: GET /values?readout=growth&item= "O=C(O)c1cc([N+](=O)[O-])ccc1Oc1ccccc1"
Ans: 97.3

Q: GET /values?readout=growth&item= "O=C1/C=C/[C@@H](O)[C@@H]2C[C@@H](O)C[C@H]2/C=C/CCC[C@H](CCc2ccc(NC(=S)Nc3ccc4c(c3)C(=O)OC43c4ccc(O)cc4Oc4cc(O)ccc43)cc2)O1"
Ans: 12.8

Q: GET /values?readout=growth&item= "Cc1ccc(-c2c3c(N)nc(-c4cccnc4)nc3nc3c2c(C)nn3-c2ccccc2)cc1"
Ans: 80.7

Q: GET /values?readout=growth&item= "COc1cc(NC(=O)Nc2cnc(Nc3ccc(N4CCOCC4)cc3)nc2Oc2cccc(OC)c2)cc(OC)c1"
Ans: 50

Q: GET /values?readout=growth&item= "O=C1c2ccccc2C(=O)c2c1ccc(C(Br)Br)c2[N+](=O)[O-]"
Ans: 19.1

Q: GET /values?readout=growth&item= "CCOC(=O)C(C)(c1ccccc1)c1ccccc1"
Ans: 104

Q: GET /values?readout=growth&item= "COc1cc(N)c2ncccc2c1SC"
Ans: 91.2

Q: GET /values?readout=growth&item= CC[C@@H](C(=O)[C@H](C)[C@H](O)[C@@H](C)[C@H]1O[C@H]([C@@H](CC)C(=O)N(CC)CC)CC[C@H]1C)C1O[C@]2(C=C[C@@H](O)[C@]3(CC[C@@](C)([C@H]4CC[C@](O)(CC)[C@H](C)O4)O3)O2)[C@H](C)C[C@@H]1C (stereo partly drawn)
Ans: 42.1

Q: GET /values?readout=growth&item= "Cc1cc(CSc2ccccc2C(=O)N2CC=C(c3ccccc3)CC2)on1"
Ans: 108

Q: GET /values?readout=growth&item= "CC(C)N(CCOc1cccc(-c2nc3sccn3c2-c2ccnc(S(C)(=O)=O)n2)c1)C(C)C"
Ans: 92.5

Q: GET /values?readout=growth&item= "O=C(O)c1cn(C2CC2)c2cc(N3CCN(C(=O)c4cc(-c5ccc(Cl)cc5)nc5ccccc45)CC3)c(F)cc2c1=O"
Ans: 89

Q: GET /values?readout=growth&item= "COc1cc2c3c(n(C4CCN(C)CC4)c(=O)c2cc1OC)-c1cc2c(cc1C3=O)OCO2"
Ans: 50.5

Q: GET /values?readout=growth&item= "CCOc1ccccc1/C=N/N1CCCCCC1"
Ans: 93.7

Q: GET /values?readout=growth&item= "CCOC(=O)CN(c1sc(C)c(C)c1C(=O)OCC)S(=O)(=O)c1ccc(C)cc1"
Ans: 107

Q: GET /values?readout=growth&item= "c1ccc(CSc2ncccc2-c2nnc(SCCN3CCOCC3)o2)cc1"
Ans: 107

Q: GET /values?readout=growth&item= "S=C1N(c2ccccc2)CN(C2CCCCC2)CN1c1ccccc1"
Ans: 118

----------
- Tested on: HCC-2998 colon
- Measurement Protocol: NCI-60 one-dose screen, 48 h (100 = growth as untreated, 0 = no growth, -100 = all killed)
- Protocol Conditions: 10 µM
This is part of a sample that, as a whole, favours compounds with a hit. Of some 83,000 tested, about 20% had one in any assay.
Answer each item with its documented growth.
Please respond with the number in % and leave the unit unwritten.

Q: GET /values?readout=growth&item= "CCn1c(SC/C(=N/O)c2ccccc2)nnc1-c1ccccc1"
Ans: 96.6

Q: GET /values?readout=growth&item= CC(C1=C(CN(C(=O)Cc2cn(-c3ccccc3)nc2-c2ccc(Cl)cc2)C(C)C)Cc2ccccc21)c1ccccn1 (stereo not given)
Ans: 68

Q: GET /values?readout=growth&item= "COc1ccccc1-n1c(-c2sc(NC(C)=O)nc2C)n[nH]c1=S"
Ans: 108

Q: GET /values?readout=growth&item= "O=C(CCl)Oc1ccc(OC(=O)CCl)cc1"
Ans: 109

Q: GET /values?readout=growth&item= "C=C(C)[C@@H]1CC[C@]2(COCCC#N)CC[C@]3(C)[C@H](CC[C@@H]4[C@@]5(C)Cc6c([nH]c7ccccc67)C(C)(C)[C@@H]5CC[C@]43C)[C@@H]12"
Ans: 104

Q: GET /values?readout=growth&item= Cc1c(O)c(=O)ccn1C1CCC(CC2CCC(n3ccc(=O)c(O)c3C)CC2)CC1 (stereo not given)
Ans: 55.6

Q: GET /values?readout=growth&item= "CC(C)N(CCOc1ccc(-c2nc3sccn3c2-c2ccnc(S(C)(=O)=O)n2)cc1)C(C)C"
Ans: 88

Q: GET /values?readout=growth&item= "CCc1ccc(-c2ccc(-n3nc(C)c4c(N)nc(Cc5ccccc5)nc43)cc2)cc1"
Ans: 23.7

Q: GET /values?readout=growth&item= "O=C(N/N=C/c1cc([N+](=O)[O-])ccc1O)c1cccc2ccccc12"
Ans: 52.4

Q: GET /values?readout=growth&item= "CNC(=O)c1c(I)c(NC(C)=O)c(I)c(C(=O)O)c1I"
Ans: 106

----------
- System: NCI-H226 lung
- Measurement Protocol: NCI-60 one-dose screen, 48 h (100 = growth as untreated, 0 = no growth, -100 = all killed)
- Protocol Conditions: 10 µM
The panel holds about 83,000 compounds, 20% with a hit somewhere; the sample as a whole holds those more often.
Each entry falls in a class defined on growth; the bands are zone 1: < 70%; zone 2: ≥ 70% and < 90%; zone 3: ≥ 90%

Q: Record "O=C(CCl)Nc1ccc(Cc2ccc(NC(=O)CCl)cc2)cc1" — which class?
Ans: zone 1

Q: Record "CC(C)(C)OC(=O)N1CCc2c(sc3ncnc(N/N=C/c4ccc(Br)cc4)c23)C1" — which class?
Ans: zone 2

Q: Record "CN1CCc2c(sc3nc4n(-c5ccc(Cl)cc5)c(=O)[nH]n4c(=O)c23)C1" — which class?
Ans: zone 3

Q: Record "O=S(=O)(NCCCNc1nccc(-c2cn(-c3ccccc3)nc2-c2ccc(Cl)c(O)c2)n1)c1ccccc1" — which class?
Ans: zone 2

Q: Record "COc1ccc([C@H]2[C@H](C(=O)Nc3cccnc3)c3ccccc3C(=O)N2c2ccccc2)cc1" — which class?
Ans: zone 3

Q: Record "COc1ccccc1/C=N\N/C(N)=N\N=C\c1ccccc1OC" — which class?
Ans: zone 1

Q: Record "CS(=O)(=O)c1nccc(-c2c(-c3cccc(O)c3)nc3sccn23)n1" — which class?
Ans: zone 3

Q: Record "Nc1nc(Cn2c(-c3nonc3N)nc3ccccc32)nc(N2CCCCC2)n1" — which class?
Ans: zone 3

Q: Record "O=C(CCCNC(=O)c1nc(-c2ccccc2)n(-c2ccccc2)n1)NO" — which class?
Ans: zone 2

Q: Record "CCN(CC)CCNc1ccc(C)c2sc3cc(Cl)ccc3c(=O)c12" — which class?
Ans: zone 2

Q: Record "O=[N+]([O-])c1cc(Cl)cc(Cl)c1O" — which class?
Ans: zone 3

Q: Record "O=C1/C=C/[C@@H](O)[C@@H]2C[C@@H](O)C[C@H]2/C=C/CCC[C@H](C(F)(F)F)O1" — which class?
Ans: zone 1

Q: Record CC[C@@H](C(=O)[C@H](C)[C@H](O)[C@@H](C)[C@H]1O[C@H]([C@@H](CC)C(=O)O)CC[C@H]1C)C1O[C@]2(C=C[C@@H](O)[C@]3(CC[C@@](C)([C@H]4CC[C@](O)(CC)[C@H](C)O4)O3)O2)[C@H](C)C[C@@H]1C (stereo not given in full) — which class?
Ans: zone 1

----------
- Tested on: SF-295 CNS
- Measurement Protocol: NCI-60 one-dose screen, 48 h (100 = growth as untreated, 0 = no growth, -100 = all killed)
- Protocol Conditions: 10 µM
Compounds without any hit were thinned out: in the full panel of roughly 83,000, 20% have a hit.
Property Name: growth (%)
Please respond with the number in % and leave the unit unwritten.

Q: GET /values?readout=growth&item= "O=C(CCn1cnc2c(cc(-c3ccccc3)n2-c2ccccc2)c1=O)Nc1ccc(F)cc1"
Ans: 77.8

Q: GET /values?readout=growth&item= "COc1ccc(-c2nn(-c3cccc(Cl)c3)cc2-c2cc(-c3cccs3)[nH]c(=S)n2)cc1"
Ans: 8.31

Q: GET /values?readout=growth&item= "COc1ccc(-c2nn(-c3cccc(Cl)c3)cc2-c2nc(N)[nH]c(=O)c2C#N)cc1"
Ans: 38.6

Q: GET /values?readout=growth&item= "CC(=O)[C@H]1CC[C@]2(C)[C@@H]1CC[C@@H]1[C@@]3(C)CC(CCC#N)(CCC#N)C(=O)C(C)(C)[C@@H]3CC[C@]12C"
Ans: 98.2

Q: GET /values?readout=growth&item= "Nc1cc(Br)c(-c2nn3c(CCC(=O)c4nc5ccccc5[nH]4)nnc3s2)c(Br)c1"
Ans: 108

Q: GET /values?readout=growth&item= COc1cc(C2CC(c3ccccc3)=NN2C(C)=O)cc(OC)c1OC (centres undefined)
Ans: 7.61

Q: GET /values?readout=growth&item= "COc1cccc(N=Nc2cccc(OC)c2)c1"
Ans: 92.8

Q: GET /values?readout=growth&item= "NS(=O)(=O)c1ccc(N2N=C(c3ccccc3)CCC2=O)cc1"
Ans: 99

Q: GET /values?readout=growth&item= "CC(C)C1=C(O)C2=C(C(=O)C1=O)[C@@]1(C)CCCC(C)(C)[C@@H]1CC2"
Ans: 43.3

Reference for the values: PubChem BioAssay (NCI)
